Biological target: T1, GST-human NOGO-A56 (human)
T1 construct: Expressed in E. coli BL21 from pGEX-6P1 and purified on glutathione-sepharose; the GST tag is part of the protein in the assays; also called GST-Nogo-A 5+6; GST Nogo-A 5 + 6
T1 sequence (chain, as listed by the source limits assumed): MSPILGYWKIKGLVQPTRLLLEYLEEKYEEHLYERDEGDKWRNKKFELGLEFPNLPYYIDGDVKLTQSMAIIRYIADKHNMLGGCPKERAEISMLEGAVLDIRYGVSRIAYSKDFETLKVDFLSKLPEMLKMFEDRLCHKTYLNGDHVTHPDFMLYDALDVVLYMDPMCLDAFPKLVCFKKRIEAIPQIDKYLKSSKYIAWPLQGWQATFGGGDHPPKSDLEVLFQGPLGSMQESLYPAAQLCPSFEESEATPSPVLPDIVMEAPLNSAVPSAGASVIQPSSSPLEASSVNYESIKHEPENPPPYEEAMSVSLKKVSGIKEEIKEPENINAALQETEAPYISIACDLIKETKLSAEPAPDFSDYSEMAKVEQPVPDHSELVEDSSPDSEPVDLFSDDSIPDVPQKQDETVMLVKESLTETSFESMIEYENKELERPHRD
Assay: direct ELISA, GST-human NOGO-A56 coated at 1.0 mcg/ml, purified antibody, OD490
For each of the binders below, state its EC50 (read off the curve).

**Query** For the binder H28L13 (antibody, human IgG1, kappa, V domains shown, IgG1 (L235A, G237A) / kappa; CAMPATH-1H signal (1-19) left out; also called H28FL L13FL) VH: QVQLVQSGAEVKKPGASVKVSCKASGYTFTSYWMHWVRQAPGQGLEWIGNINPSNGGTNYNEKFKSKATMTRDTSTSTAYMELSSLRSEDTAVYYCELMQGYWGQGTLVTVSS VL: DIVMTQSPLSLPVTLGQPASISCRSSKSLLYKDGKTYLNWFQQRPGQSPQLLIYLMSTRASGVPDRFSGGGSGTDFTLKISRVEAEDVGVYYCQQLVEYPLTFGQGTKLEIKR , what EC50 (read off the curve) is on record?
**Result** ~0.07 µg/mL

**Query** Value lookup for EC50 (read off the curve); key = H27L13 (antibody, human IgG1, kappa, V domains shown, IgG1 (L235A, G237A) / kappa; CAMPATH-1H signal (1-19) left out) VH: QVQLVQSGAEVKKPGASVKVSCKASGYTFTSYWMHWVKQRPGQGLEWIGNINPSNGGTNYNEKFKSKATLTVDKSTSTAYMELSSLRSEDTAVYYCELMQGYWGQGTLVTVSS VL: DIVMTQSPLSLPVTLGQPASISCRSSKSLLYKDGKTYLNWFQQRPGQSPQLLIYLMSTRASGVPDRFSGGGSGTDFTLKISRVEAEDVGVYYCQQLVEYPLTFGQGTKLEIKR
**Result** ~0.08 µg/mL

**Query** Could you share which EC50 (read off the curve) value was measured for H1L11 (antibody, human IgG1, kappa, V domains shown, CDR H3 GQGY; also called humanised 2A10 variant H1L11 of WO05/061544) VH: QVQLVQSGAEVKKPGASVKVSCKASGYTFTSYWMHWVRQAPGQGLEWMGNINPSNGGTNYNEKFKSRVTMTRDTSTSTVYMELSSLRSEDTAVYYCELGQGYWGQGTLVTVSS VL: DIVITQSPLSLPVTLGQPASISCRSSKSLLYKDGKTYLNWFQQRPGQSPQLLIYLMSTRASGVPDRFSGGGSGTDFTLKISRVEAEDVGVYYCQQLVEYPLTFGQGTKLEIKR ?
**Result** ~0.2 µg/mL

Values were extracted from patent US20130287781A1.
